Target: 5HTR2B (Homo sapiens)
Test: 5HTR2B antagonist activity, calcium mobilization assay in human Maverick/293 cells (serotonin as agonist)
Details: intracellular calcium, emission 525 nm, read-out: Ca assay IC50
pIC50: −log10 of the molar value.
measured.metric: pIC50

Worked examples, 3 compounds total:
COc1ccc(S(=O)(=O)NC2CC2)cc1C(=O)Nc1ccc(F)cc1    8.57
COc1ccc(S(=O)(=O)N[C@H]2C[C@H](O)C2)cc1C(=O)Nc1ccc(F)c(C(F)F)n1 [Compound 174a]    8.41
COc1ccc(S(=O)(=O)N[C@H]2CC[C@@H](O)CC2)cc1C(=O)Nc1ccc(F)cc1    9.52

(a) COc1ccc(S(=O)(=O)N[C@H]2C[C@H](O)C2)cc1C(=O)Nc1ccc(F)c(C)c1
(b) COc1ccc(S(=O)(=O)N[C@H]2CCOC2)cc1C(=O)Nc1ccc(Cl)cc1F
(c) [2H]C([2H])([2H])Oc1ccc(S(=O)(=O)N[C@H]2CCOC2)cc1C(=O)Nc1ccc(F)cn1
(d) COc1ccc(S(=O)(=O)N[C@H]2CCOC2)cc1C(=O)Nc1ccc(F)cc1Cl
(e) COc1ccc(S(=O)(=O)N[C@H]2CCOC2)cc1C(=O)Nc1ncccc1C
Arrange items by their pIC50 values in increasing order. I'd appreciate it if you listed the labels in the requested order.
e, a, c, b, d
(e: 6.39, a: 7.74, c: 8.49, b: 9.40, d: 9.70)

* * *

Molecular target: 5HTR2B (Homo sapiens, UniProt P41595)
Sequence (P41595 whole entry): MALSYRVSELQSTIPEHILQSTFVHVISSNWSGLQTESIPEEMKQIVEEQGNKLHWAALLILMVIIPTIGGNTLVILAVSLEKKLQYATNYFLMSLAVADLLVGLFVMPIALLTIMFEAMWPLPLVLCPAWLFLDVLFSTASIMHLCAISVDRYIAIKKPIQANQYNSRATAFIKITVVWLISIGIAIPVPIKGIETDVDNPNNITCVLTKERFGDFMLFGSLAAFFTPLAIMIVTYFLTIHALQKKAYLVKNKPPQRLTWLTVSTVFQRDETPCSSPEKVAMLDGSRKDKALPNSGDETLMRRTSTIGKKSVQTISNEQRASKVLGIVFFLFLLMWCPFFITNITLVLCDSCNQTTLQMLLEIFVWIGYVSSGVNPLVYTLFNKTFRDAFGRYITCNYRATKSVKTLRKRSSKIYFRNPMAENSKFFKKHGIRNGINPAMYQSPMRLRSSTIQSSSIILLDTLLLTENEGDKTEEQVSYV
Assay: 5HTR2B antagonist activity, calcium mobilization assay in human Maverick/293 cells (serotonin as agonist)
Conditions: intracellular calcium, emission 525 nm, read-out: Ca assay IC50
pIC50: −log10 of the molar value.
measured.metric: pIC50

COc1ccc(S(=O)(=O)N[C@@H]2CCNC2)cc1C(=O)Nc1ccc(F)cc1    8.48
COc1ccc(S(=O)(=O)N[C@H]2CCNC2)cc1C(=O)Nc1ccc(F)c(C)c1    9.15
COc1ccc(S(=O)(=O)N[C@H]2C[C@@H](O)C2)cc1C(=O)Nc1ccccc1Cl    9.70

(I) COc1ccc(S(=O)(=O)NC2COC[C@H]2O)cc1C(=O)Nc1ccccc1Cl (stereo in doubt) [Compound 56b]
(II) COc1ccc(N(C)S(=O)(=O)C2CCOC2)cc1C(=O)Nc1ccc(F)c(C)c1 (single isomer, unassigned) [Compound 204a]
(III) COc1ccc(S(=O)(=O)N[C@H]2CCOC2)cc1C(=O)Nc1cc(Cl)ccc1Cl
(IV) COc1ccc(S(=O)(=O)NC(C)C(F)(F)F)cc1C(=O)Nc1ccc(F)c(C)n1 (single isomer, unassigned) [Compound 29a]
Hey, can you sort those molecules up there by pIC50, smallest first? Kindly provide the labels arranged according to the requested ordering.
II, IV, III, I

* * *

Molecular target: 5HTR2B (Homo sapiens)
Assay: 5HTR2B antagonist activity, calcium mobilization assay in human Maverick/293 cells (serotonin as agonist)
Conditions: intracellular calcium, emission 525 nm, read-out: Ca assay IC50
pIC50: −log10 of the molar value.
measured.metric: pIC50

COc1ccc(S(=O)(=O)N[C@H]2CCNC2)cc1C(=O)Nc1ccc(F)c(C(F)F)c1    9.30
COc1ccc(S(=O)(=O)N[C@@H]2CCNC2)cc1C(=O)Nc1ccc(F)c(C(F)F)c1    8.35
COCCOC[C@@H](C)NS(=O)(=O)c1ccc(OC)c(C(=O)Nc2ccc(F)cc2F)c1 [Compound 147b]    8.68
COc1ccc(S(=O)(=O)N[C@H]2CCNC2)cc1C(=O)Nc1ccc(F)c(C)n1    8.80
COc1ccc(S(=O)(=O)NC2CCOCC2)cc1C(=O)Nc1ccc(F)c(C)n1    8.14
COc1ccc(S(=O)(=O)NC2(C)COC2)cc1C(=O)Nc1ccc(F)cc1    8.66

(A) COc1ccc(S(=O)(=O)N[C@H]2C[C@H](O)C2)cc1C(=O)Nc1ccc(F)c(C(F)F)c1 [Compound 142a]
(B) COc1ccc(S(=O)(=O)N[C@H]2CCOC2)cc1C(=O)Nc1ccc(F)c(C)c1
Task for the reader: decide whether A or B has the larger pIC50. In your reply, give the label of the chosen option.
B
